biological target: PDE5A1 (Homo sapiens, UniProt O76074); assay: CoMFA 3D-QSAR model prediction of PDE5A1 activity; conditions: EA minus PA
Parameter CoMFA residual: see the listing below.
value.kind: CoMFA residual

* COc1ccc(-c2oc3c(CC=C(C)C)c(O)cc(O)c3c(=O)c2OC2OC(C)C(O)C(O)C2OC2OC(C)C(O)C(O)C2O)cc1 (stereo not shown) [Compound 2, 2-O"-rhamnosylicaridide II] | 0.015
* COc1ccc(-c2oc3c(CC=C(C)C)c(OC4OC(CO)C(O)C(O)C4O)cc(O)c3c(=O)c2OC2OC(C)C(O)C(O)C2OC2OCC(O)C(O)C2O)cc1 (stereo not shown) [Compound 5, epimedin B] | 0.032
* COc1ccc(C(=O)/C=C\c2cc(OC)c(OC)cc2OC)c(OC)c1 | 0.296
* CCCc1nn(C)c2c(=O)[nH]c(-c3cc(S(=O)(=O)N4CCN(C)CC4)ccc3OCC)nc12 | 0.068
* COc1ccc(-c2oc3c(CC=C(C)C)c(O[C@@H]4O[C@H](CO)[C@@H](O)[C@H](O)[C@H]4O)cc(O)c3c(=O)c2O[C@@H]2O[C@@H](C)[C@H](O)[C@@H](O)[C@H]2O)cc1 | 0.034
* COc1cccc(/C=C/C(=O)c2c3c(c(OC)c4c2OCO4)CN(C)CC3)c1 | 0.06
* COc1ccc(-c2oc3c(CC=C(C)C)c(O)cc(O)c3c(=O)c2O)cc1 | 0.105
